- study-conditions: in ethanol, 308.15 K
recorded-metric: solubility (mole fraction)
Answer field: number only, no words.

Lab book: solubility (mole fraction) of COc1c(N2CCNC(C)C2)c(F)cc2c(=O)c(C(=O)O)cn(C3CC3)c12 (stereo unspecified) noted as 0.000984

---

- study-conditions: in ethanol, 283.15 K
recorded-metric: solubility (mole fraction)
Answer field: number only, no words.

Lab book: solubility (mole fraction) of COc1c(N2CCNC(C)C2)c(F)cc2c(=O)c(C(=O)O)cn(C3CC3)c12 (stereo unspecified) noted as 0.000403

---

- study-conditions: in acetonitrile, 313.15 K
recorded-metric: solubility (mole fraction)
Answer field: number only, no words.

Lab book: solubility (mole fraction) of COc1c(N2CCNC(C)C2)c(F)cc2c(=O)c(C(=O)O)cn(C3CC3)c12 (stereo unspecified) noted as 0.00424

---

- study-conditions: in toluene, 273.15 K
recorded-metric: solubility (mole fraction)
Answer field: number only, no words.

Lab book: solubility (mole fraction) of COc1c(N2CCNC(C)C2)c(F)cc2c(=O)c(C(=O)O)cn(C3CC3)c12 (stereo unspecified) noted as 5.9e-05

---

- study-conditions: in 2-butanone, 298.15 K
recorded-metric: solubility (mole fraction)
Answer field: number only, no words.

Lab book: solubility (mole fraction) of COc1c(N2CCNC(C)C2)c(F)cc2c(=O)c(C(=O)O)cn(C3CC3)c12 (stereo unspecified) noted as 0.00349

---

- study-conditions: in n-butanol, 298.15 K
recorded-metric: solubility (mole fraction)
Answer field: number only, no words.

Lab book: solubility (mole fraction) of COc1c(N2CCNC(C)C2)c(F)cc2c(=O)c(C(=O)O)cn(C3CC3)c12 (stereo unspecified) noted as 0.00225

---

- study-conditions: in DMF, 283.15 K
recorded-metric: solubility (mole fraction)
Answer field: number only, no words.

Lab book: solubility (mole fraction) of COc1c(N2CCNC(C)C2)c(F)cc2c(=O)c(C(=O)O)cn(C3CC3)c12 (stereo unspecified) noted as 0.00359

---

- study-conditions: in n-propanol, 298.15 K
recorded-metric: solubility (mole fraction)

Lab book: solubility (mole fraction) of COc1c(N2CCNC(C)C2)c(F)cc2c(=O)c(C(=O)O)cn(C3CC3)c12 (stereo unspecified) noted as 0.000922

---

- study-conditions: in methanol, 283.15 K
recorded-metric: solubility (mole fraction)
Answer field: number only, no words.

Lab book: solubility (mole fraction) of COc1c(N2CCNC(C)C2)c(F)cc2c(=O)c(C(=O)O)cn(C3CC3)c12 (stereo unspecified) noted as 0.000294

---

- study-conditions: in DMF, 278.15 K
recorded-metric: solubility (mole fraction)

Lab book: solubility (mole fraction) of COc1c(N2CCNC(C)C2)c(F)cc2c(=O)c(C(=O)O)cn(C3CC3)c12 (stereo unspecified) noted as 0.00305

---

- study-conditions: in acetonitrile, 283.15 K
recorded-metric: solubility (mole fraction)
Answer field: number only, no words.

Lab book: solubility (mole fraction) of COc1c(N2CCNC(C)C2)c(F)cc2c(=O)c(C(=O)O)cn(C3CC3)c12 (stereo unspecified) noted as 0.00177

---

- study-conditions: in toluene, 293.15 K
recorded-metric: solubility (mole fraction)

Lab book: solubility (mole fraction) of COc1c(N2CCNC(C)C2)c(F)cc2c(=O)c(C(=O)O)cn(C3CC3)c12 (stereo unspecified) noted as 0.000199
